Target: T1, human CD73 (huCD73) protein, antigen of the Biacore assay (human, UniProt P21589 27-547, limits assumed)
T1 construct: also called human CD73 antigen
T1 sequence (looked up): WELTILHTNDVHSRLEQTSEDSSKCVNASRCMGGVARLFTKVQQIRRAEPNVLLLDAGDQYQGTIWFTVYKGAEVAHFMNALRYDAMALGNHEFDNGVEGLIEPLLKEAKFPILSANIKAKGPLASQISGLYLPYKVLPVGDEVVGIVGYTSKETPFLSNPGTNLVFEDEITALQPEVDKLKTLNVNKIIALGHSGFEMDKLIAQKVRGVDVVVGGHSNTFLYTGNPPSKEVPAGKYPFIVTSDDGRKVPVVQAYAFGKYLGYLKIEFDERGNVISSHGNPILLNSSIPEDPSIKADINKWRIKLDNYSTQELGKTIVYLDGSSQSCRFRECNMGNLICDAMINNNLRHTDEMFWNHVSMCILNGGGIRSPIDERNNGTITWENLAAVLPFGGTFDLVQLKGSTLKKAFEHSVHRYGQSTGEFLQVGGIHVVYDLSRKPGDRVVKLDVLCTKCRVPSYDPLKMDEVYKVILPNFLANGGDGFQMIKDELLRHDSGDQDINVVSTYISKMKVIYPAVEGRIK
Test: SPR Biacore T200; antibody captured on Protein A chip, CD73 in flow; 1:1 Langmuir
reportedProperty: kon (M⁻¹ s⁻¹)
Numbers only here, please. The scale is M⁻¹ s⁻¹.

>  <binder>
Hab110.22 (antibody, V domains shown, VL2 + VH2; recombined with human heavy and light constant regions) VH: EVQLVQSGAEVKKPGASVKVSCKASGYTFTSYTMHWVRQAPGQRLEWMGYINPNSFYIEYNQKFKDRVTITADTSASTAYMELSSLRSEDTAVYYCARGDYDLFYDMDNWGQGTTVTVSS VL: DIQMTQSPSSLSASVGDRVTITCRASQDIGNSLNWLQQKPGKAIKRLIYATFRLDSGVPSRFSGSRSGTEYTLTISSLQPEDFATYYCQQYASFPWTFGGGTKVEIK

>  <reportedResult>
338000

$$$$
>  <binder>
CPX006 (antibody CPX-006 disclosed in patent application WO2018013611) (antibody, V domains shown) VH: QVQLVQSGAEVEKPGASVKVSCKASGYTFTSYWITWVRQAPGQGLEWMGDIYPGSGNTNYNEKFKTRVTITADKSTSTAYMELSSLRSEDTAVYYCAKEGGLTTEDYALDYWGQGTLVTVSS VL: EIVLTQSPATLSLSPGERATLSCRASKNVSTSGYSYMHWYQQKPGQAPRLLIYLASNLESGIPPRFSGSGYGTDFTLTINNIESEDAAYYFCQHSRELPFTFGQGTKVEIKR

>  <reportedResult>
199000

$$$$

Shifting focus to the binder that follows.
kon reported for this binder Hab127.31d (antibody, human IgG1, kappa, V domains shown, also called humanized antibody of mab127) VH: EVQLVQSGAEVKKPGASVKVSCKASGYTFTAYFMNWVRQAPGQGLEWMGRIYHNKGDTFYSQKFKGRVTMTVDKSTSTVYMELSSLRSEDTAVYYCATSYVGDWGQGTTVTVSS VL: DIQMTQSPSSLSASVGDRVTITCRASQDIGDSLNWLQQKPGGALKRLIYATSSLDSGVPSRFSGSGSGTEYTLTISSLQPEDFATYYCLQYASFPWTFGGGTKVEIKR : 226000
